assay: Cell signaling CRE-BLA (Fsk stim); settings: CHO CRE-bla reporter, forskolin EC10, beta-lactamase ratio; series mostly up to 38.2 µM
About 1,800 (2.5%) of roughly 71,000 compounds were called active. Inconclusive results (about 26%) are left out. Calls come from the whole dose curve; as a rule, active = well fitted activation curve with a large enough effect in the signal ratio, with a control signal flat (not every such curve was filed as active); inconclusive = small, poorly fitted or top-dose-only effect, or effect the other way, or a change in a side signal; inactive = flat fitted curve, though single readings scatter; the % refers to the signal ratio. Many of the other results were omitted from the sample, so actives are more common in it than they were.
In this exercise, the only acceptable responses are 1 for active, -1 for inactive

IN: In this assay, the call recorded for O=C(O)CN(Cc1ccco1)S(=O)(=O)c1ccccc1 was what?
OUT: -1

IN: In this assay, the call recorded for COc1ccccc1CNC(=O)CCn1c(=O)sc2ccccc21 was what?
OUT: -1

IN: In this assay, the call recorded for CC(=O)N1CCC(C(=O)Nc2nc(-c3ccccc3)ns2)CC1 was what?
OUT: 1

IN: In this assay, the call recorded for COc1c(C)cccc1C(=O)Nc1cc(Cl)ccc1N1CCOCC1 was what?
OUT: -1

IN: In this assay, the call recorded for Cn1c(=O)n(C)c2cc(CNc3ccc(N4CCOCC4)c(C(=O)O)c3)ccc21 was what?
OUT: -1

IN: In this assay, the call recorded for Cn1nc(-c2ccc(N3CCOCC3)c(NC(=O)c3ccccc3)c2)c2ccccc2c1=O was what?
OUT: 1

Continuing:
IN: In this assay, the call recorded for COc1ccccc1CNc1ncncc1-c1cccc(NS(C)(=O)=O)c1 was what?
OUT: -1

IN: In this assay, the call recorded for CCN(CC)S(=O)(=O)N1CCC(C(=O)NC(C)CCc2ccccc2)CC1 (stereo unspecified) was what?
OUT: -1

IN: In this assay, the call recorded for CCc1c(C)nc2cc(-c3cccs3)[nH]n2c1=O was what?
OUT: -1

IN: In this assay, the call recorded for COc1ccc(-n2c(C)nc3c(cnn3-c3ccccc3)c2=O)cc1 was what?
OUT: -1

IN: In this assay, the call recorded for COCCn1c(C)cc(C(=O)CSc2ncnc3sc4c(c23)CCC4)c1C was what?
OUT: -1

IN: In this assay, the call recorded for COc1ccc(-n2c(=O)c(-c3cn(C)c4ccccc34)nc3cnc(OC)nc32)cc1 was what?
OUT: 1

IN: In this assay, the call recorded for c1ccc(Oc2ccccc2)cc1 was what?
OUT: -1

IN: In this assay, the call recorded for COCCn1c(=O)c(CCc2ccccc2)nc2cncnc21 was what?
OUT: -1

IN: In this assay, the call recorded for CCOc1ccccc1/C=c1\sc2nc(-c3ccco3)nn2c1=O was what?
OUT: -1

IN: In this assay, the call recorded for COc1cccc2c(=O)n(CC(=O)N3CCCCCC3)ccc12 was what?
OUT: -1

----------
assay: Cell signaling CRE-BLA (Fsk stim); settings: CHO CRE-bla reporter, forskolin EC10, beta-lactamase ratio; series mostly up to 38.2 µM
In all, about 71,000 compounds went through this assay and about 1,800 (2.5%) were called active. Another 26% or so got no clear call; they are omitted. The call rests on the fitted dose curve; in most records, active means well fitted activation curve with a large enough effect in the signal ratio, with a control signal flat (not every such curve was filed as active); inconclusive means small, poorly fitted or top-dose-only effect, or effect the other way, or a change in a side signal; inactive means flat fitted curve, though single readings scatter; the % refers to the signal ratio. For the sample, actives were picked, then their nearest neighbours and some compounds at random.
In this exercise, the only acceptable responses are active, inactive

Consider the following illustrative entries.
IN: In this assay, the call recorded for CCOC(=O)c1oc2ccccc2c1NC(=O)c1cccs1 was what?
OUT: active

IN: In this assay, the call recorded for CSc1ccc(-c2c(C#N)c(N)nc3c2c(C)nn3-c2ccccc2)cc1 was what?
OUT: active

IN: In this assay, the call recorded for COc1cccc(Cn2c(=O)c(C)nc3cnc(Oc4ccccc4)nc32)c1 was what?
OUT: active

IN: In this assay, the call recorded for Cc1ccccc1C(=O)O was what?
OUT: inactive

IN: In this assay, the call recorded for C=CCn1c2ccccc2c2nnc(SC(CC)C(=O)Nc3nc(C)c(C(=O)OCC)s3)nc21 (stereo not given) was what?
OUT: active

IN: In this assay, the call recorded for CCOC(=O)c1c(NC(=O)c2cccs2)sc(C)c1C was what?
OUT: active

IN: In this assay, the call recorded for CC1CN(c2cc(=O)n(Cc3ccc(F)cc3)c(=O)[nH]2)CC(C)O1 (stereo not given) was what?
OUT: inactive

IN: In this assay, the call recorded for CC(=O)c1ccc(Oc2cc(C)nc(-n3nc(C)cc3C)n2)cc1 was what?
OUT: active

IN: In this assay, the call recorded for CSc1nnc(CNC(=O)c2ccccc2)n1-c1ccc(F)cc1 was what?
OUT: inactive

IN: In this assay, the call recorded for CC1CN(Cc2nc3c(c(=O)n(C)c(=O)n3C)n2Cc2cccc(Cl)c2)CC(C)O1 (stereo not given) was what?
OUT: inactive

Continuing:
IN: In this assay, the call recorded for Cc1c2c(nc3ccccc13)-c1cccc(=O)n1C2 was what?
OUT: active

IN: In this assay, the call recorded for O=C(NCc1ccccc1)[C@H]1C[C@@H]1[C@H](NP(=O)(c1ccccc1)c1ccccc1)c1ccccc1 was what?
OUT: inactive

IN: In this assay, the call recorded for CCN(CC)CCCCn1c(-c2ccccc2)nc2c(N3CCOCC3)nc(C)nc21 was what?
OUT: inactive

IN: In this assay, the call recorded for COC(=O)[C@@]1(C)C=C[C@@H](Cc2ccccc2)N1C(C)=O was what?
OUT: inactive

IN: In this assay, the call recorded for COc1ccc(-n2nnc3c(=O)n(CC(=O)OCc4ccccc4)cnc32)cc1 was what?
OUT: inactive

IN: In this assay, the call recorded for CCOc1cccc(-n2nnnc2-c2ccc(OC)cc2)c1 was what?
OUT: active

IN: In this assay, the call recorded for COc1cccc(Nc2ncc3ncc(=O)n(C4CC4)c3n2)c1 was what?
OUT: inactive

IN: In this assay, the call recorded for N#Cc1cc2[nH]c(=O)c(=O)[nH]c2cc1[N+](=O)[O-] was what?
OUT: inactive

IN: In this assay, the call recorded for CCCCC/C=C/C=C/C=O was what?
OUT: inactive

IN: In this assay, the call recorded for COC(=O)c1ccc(CSc2ccccc2C)o1 was what?
OUT: inactive

IN: In this assay, the call recorded for CCOC(=O)c1sc(=S)n(-c2cccc(OC)c2)c1N was what?
OUT: inactive

IN: In this assay, the call recorded for CCC[C@@H]1C[C@@]1(CCC)C(NC(=O)c1ccc(-c2ccccc2)cc1)c1cccc(Cl)c1 (stereo not given in full) was what?
OUT: inactive

IN: In this assay, the call recorded for O=C(O)Cc1ccc(NC(=O)c2cccs2)cc1 was what?
OUT: inactive

IN: In this assay, the call recorded for C=CCn1c(C(C)NC(=O)CC)nc2ccccc21 (stereo not given) was what?
OUT: inactive

IN: In this assay, the call recorded for C#CCNc1nc(C(C)C)nc2c1nnn2Cc1ccccc1F was what?
OUT: active

----------
Assay: Cell signaling CRE-BLA (Fsk stim)
Settings: CHO CRE-bla reporter, forskolin EC10, beta-lactamase ratio; series mostly up to 38.2 µM
Method: NIH Molecular Libraries Screening Centers Network [MLSCN] NIH Chemical Genomics Center [NCGC] Assay Provider: Marshall W. Nirenberg, U.S. National heart lung & blood institute […] 2000 cells/5uL in Opti-MEM medium containing 0.5% dialyzed FBS, 0.1 mM NEAA, 1 mM sodium pyruvate and 10 mM HEPES was dispensed into 1536-well plates and cells were cultured at 37 degrees Celsius overnight. […] The %Activity was determined from the ratio of 460nm/530nm. […]
Hit rate of the full screen: of about 71,000 compounds, about 1,800 (2.5%) were called active. Another 26% or so got no clear call; they are omitted. Calls follow the shape of the dose curve; as a rule, active = well fitted activation curve with a large enough effect in the signal ratio, with a control signal flat (not every such curve was filed as active); inconclusive = small, poorly fitted or top-dose-only effect, or effect the other way, or a change in a side signal; inactive = flat fitted curve, though single readings scatter; the % refers to the signal ratio. The list comes from a sample in which actives are over-represented; it also holds close analogues and randomly drawn compounds.
In this exercise, the only acceptable responses are class 1 for active, class 0 for inactive

Consider the following illustrative entries.
IN: In this assay, the call recorded for CCSc1nc(C)nc2c1oc1ccccc12 was what?
OUT: class 1

IN: In this assay, the call recorded for Cc1cc(N(C)C)cc(C)[n+]1[O-] was what?
OUT: class 0

IN: In this assay, the call recorded for Cc1nc(SCC(=O)Nc2cc(C)on2)c2c3c(sc2n1)CCCC3 was what?
OUT: class 1

IN: In this assay, the call recorded for CCCc1nc(SCC(=O)Nc2ccccc2OC)c2c(=O)n(C)c(=O)n(C)c2n1 was what?
OUT: class 1

IN: In this assay, the call recorded for CCOC(=O)CSc1nnc(-c2cccc(Br)c2)o1 was what?
OUT: class 0

Continuing:
IN: In this assay, the call recorded for COc1ccc(C(=O)n2nc(-c3ccc(C)cc3)nc2N)cc1OC was what?
OUT: class 0

IN: In this assay, the call recorded for Cc1cc(N=CC2=C(O)CCCC2=O)no1 was what?
OUT: class 0

----------
assay: Cell signaling CRE-BLA (Fsk stim); details: CHO CRE-bla reporter (cAMP response element driving beta-lactamase), forskolin EC10, beta-lactamase ratio; series mostly up to 38.2 µM
About 1,800 (2.5%) of roughly 71,000 compounds were called active. About 26% were inconclusive and are not listed. Calls come from the whole dose curve; as a rule, active = well fitted activation curve with a large enough effect in the signal ratio, with a control signal flat (not every such curve was filed as active); inconclusive = small, poorly fitted or top-dose-only effect, or effect the other way, or a change in a side signal; inactive = flat fitted curve, though single readings scatter; the % refers to the signal ratio. This excerpt belongs to a sample that is enriched for actives.
In this exercise, the only acceptable responses are active, inactive

Consider the following illustrative entries.
IN: In this assay, the call recorded for O=S(N1CCCCCC1)C12CC3CC(CC(C3)C1)C2 (stereo not given) was what?
OUT: inactive

IN: In this assay, the call recorded for COC(=O)c1ccc(OC(=O)c2nn(C)cc2Cl)c(OC)c1 was what?
OUT: inactive

Continuing:
IN: In this assay, the call recorded for Fc1ccc(Br)cc1/C=N/n1cnnc1 was what?
OUT: inactive

IN: In this assay, the call recorded for Cc1cc(/C=N/n2cnnc2)c(C)n1-c1ccc2ncccc2c1 was what?
OUT: active

IN: In this assay, the call recorded for Cc1occc1C(=O)N1CCCc2ccccc21 was what?
OUT: inactive

Attribution: PubChem BioAssay AID662
